# reported melting point; entries follow

Some molecules with recorded melting point:
CCCC[C@H](NC(=O)[C@H](CC(C)C)NC(=O)COc1ccc(OC)cc1)C(=O)CSCc1ccco1 = 86 to 88 °C
CCOC(=O)c1cc2c(nc1COc1ccc(C(=O)O)cc1)CCCCC2 = 135 to 136 °C
O=C(O)C(NC(=O)C(F)(F)F)c1ccc(Cl)cc1 (stereo unspecified) = 170 to 172 °C
CN1C(=O)Cc2cc(C3=NNC(=O)CC3)ccc21 = 261 to 264 °C
COC(=O)C1=C(C)NC(N)=C(C#N)C1c1ccc(C(F)(F)F)cc1 (stereo unspecified) = 210 to 214 °C

GET /values?readout=melting point&item= Cc1ccc(C(=O)Oc2ccccc2)cc1
74 to 76 °C

Another molecule to look at: CCN(C)C(=O)/C=C/CSc1nc(N)cc(Cl)n1
170 to 172 °C

Another molecule to look at: Cc1ccc(C(=O)C2=C(O)C(=O)N(c3ccc(C)nn3)C2c2ccc(C)cc2C)cc1 (stereo unspecified)
254 °C

Another molecule to look at: Cc1cc(C)c(CC(=O)O)cc1C
123 to 125 °C

Another molecule to look at: Cc1ccc(OC2SCC(O)C(O)C2O)cn1 (stereo unspecified)
233 °C

Another molecule to look at: Cc1oc(C)c(C(=O)Nc2ccc(Cl)c(C(=O)OC(C)C)c2)c1C
83 to 85 °C

Another molecule to look at: COc1ccc(Cl)cc1NC(=O)[C@H]1[C@H](c2cccc(C)c2)C1(C)C (relative stereo)
148 to 150 °C

Another molecule to look at: COc1cccc(-c2nnc(-c3ccoc3)o2)c1
70 to 71 °C

Another molecule to look at: O=c1oc2c(c(=O)n1C1CCCCC1)CCC2
72 to 74 °C

Another molecule to look at: COc1ccc2sc(C(=O)O)nc2c1[N+](=O)[O-]
140 to 142 °C

Another molecule to look at: O=C(Nc1ccccc1S(=O)(=O)c1ccccc1)N[C@@H](Cc1ccc(NCc2c(Cl)cccc2Cl)cc1)C(=O)O
116 °C

* * *

OUTCOME_MEASURE: melting point

Some compounds with recorded melting point:
Cc1c(C)c(N2CCN(c3ccc(S(C)=O)cc3)CC2)c(C)c2c1OC(C)(C)C2 (stereo not given) = 223 to 227 °C
COCCn1nc(C)c(-c2ccc3c(c2)NC(=O)CO3)c1-c1ccc(F)cc1 = 174 °C
CC1(C)OC[C@@H]([C@@H]2CC(=O)N2)O1 = 91 to 92 °C
Cc1cc(C2=NOC(c3cc(Cl)cc(Cl)c3)(C(F)(F)F)C2)ccc1C(=O)NC1CCCO1 (stereo not given) = 144 to 147 °C
CCOC(=O)c1c(O)c2cc(OCc3ccccc3)ccc2c(=O)n1CC(C)C = 92 to 93 °C

Next compound, melting point to be filled in.
GET /values?readout=melting point&item= CN(c1cccc2cc(C3=NCC(CC(=O)O)S3)[nH]c12)S(=O)(=O)c1nccs1 (stereo not given)
121 to 123 °C

* * *

# reported melting point; entries follow

COc1cccc(N2CCN(CCC(=O)O)CC2)c1 = 180 to 183 °C

GET /values?readout=melting point&item= CC1(C)OC(c2ccc(S(C)(=O)=O)cc2)=C(c2cccc3ccccc23)C1=O
194 to 195 °C

Another molecule to look at: CCCC(=O)NCCC1=CCc2ccc(OC)cc21
64 to 67 °C

Another molecule to look at: CCC(C)n1cc(Cl)nc(N2CCc3cc(OC)cc(Cl)c32)c1=O (stereo unspecified)
143 to 145 °C

Another molecule to look at: CCCCNc1c(N)c(S)nc(C)c1C(=O)OCC
103 to 105 °C

Another molecule to look at: COc1ccc(C(=O)CCCCCBr)c(Cl)c1Cl
52 to 53 °C

Another molecule to look at: CS(=O)(=O)Oc1cc(N)c(F)cc1Cl
79 to 80 °C

Another molecule to look at: COc1cc2c(cc1C(F)(F)F)N(C(=O)Nc1ccc3c(ccn3-c3ccncc3)c1)CC2
206 to 211 °C

Another molecule to look at: CCCNC(=O)CCn1c(CCC)nc2c(N)nc3ccccc3c21
157 to 158 °C

Another molecule to look at: COc1cc(Br)cc2nc(SCc3ccccc3)nn12
80 to 82 °C

Another molecule to look at: Nc1ccc(C#CCCN2CCC(O)(c3ccc(Cl)cc3)CC2)cc1
134 to 136 °C

* * *

OUTCOME_MEASURE: melting point

Some compounds with recorded melting point:
CCNC(=O)c1cc(NS(=O)(=O)c2ccc(I)cc2)ccc1Oc1cncc(Cl)c1 = 154 to 156 °C
CC1(C)OC(c2ccc(S(N)(=O)=O)cc2)=C(c2cc3ccccc3s2)C1=O = 120 to 121 °C
COc1ccc(C(=NOC(C)=O)c2cc(F)ccc2F)c(O)c1 = 110 to 111 °C
COCC#CCCCCC12OCC(C(C)(C)C)(CO1)CO2 = 47 to 49 °C
COc1cc(OC)c(-c2cccs2)cc1C#CC(=O)c1ccc(C(=O)O)cc1 = 220 °C
CC(C)c1ccc(C(=O)CCCCl)cc1 = 35 to 37 °C
COc1ccc2[nH]c3c(c2c1)C[C@@]1(C)C(=O)N(CCCN(C)C)C(=O)N1[C@@H]3c1cccc(O)c1 (racemic) = 228 to 231 °C
O=S1(=O)c2ccccc2-c2nc3ccccc3c(Cl)c21 = 266 to 269 °C

Next compound, melting point to be filled in.
GET /values?readout=melting point&item= O=C(CN1CCN(CC(=O)N2CCC3(CC2)Cn2cc([N+](=O)[O-])nc2O3)CC1)Nc1ccc(C(F)(F)F)cc1
133 to 135 °C

* * *

# reported melting point; entries follow

Some compounds with recorded melting point:
CCC1C(=O)c2c(cc(OCC(=O)O)c(Cl)c2Cl)C1c1ccccc1 (stereo not given) = 199 to 203 °C
Cc1cc(=O)c(OCc2ccccc2)c(C(=O)NC2CCC2)n1C = 221 to 222 °C
O=C(c1ccc(F)cc1)c1c(-c2ccc(OCCN3CCCC3)cc2)sc2c(O)cccc12 = 138 to 142 °C
CCOC(=O)N1c2cc(OC)c(OC)cc2C(=O)C(=CNC)C1C (stereo not given) = 154 to 156 °C
O=C(c1cc2cc3[nH]c(=O)[nH]c3cc2[nH]1)N1CCC(Cc2ccccc2)CC1 = > 270 °C

GET /values?readout=melting point&item= O=C1OC(Cc2ccccc2)(Cc2ccccc2)C2CNCCN12 (stereo not given)
132 to 133 °C

Another compound to look at: CNS(=O)(=O)CCc1ccc(NN=CCCC#N)cc1
96 to 97 °C

Another compound to look at: CC#CCOc1ccc(S(=O)(=O)NC2(C(=O)NO)CCCCC2)cc1
82 to 84 °C

Another compound to look at: CS(=O)(=O)On1nnc2ccccc21
88 to 90 °C

Another compound to look at: CCCCNCC(O)COc1ccc(-c2nc(C(F)(F)F)c[nH]2)cc1 (stereo not given)
151 to 154 °C

* * *

OUTCOME_MEASURE: melting point

Cc1ccc(C2=NC(C)(C(C)C)C(=S)N2)cc1 (stereo not given) = 167 to 170 °C

GET /values?readout=melting point&item= Fc1ccc(CNC(=S)N2CCc3c([nH]c4ccccc34)C2c2ccc3c(c2)OCO3)cc1 (stereo not given)
137 to 139 °C

Another compound to look at: O=C(NCC12CC3CC(CC(C3)C1)C2)c1cc(-c2cc(F)c(F)cc2C(=O)O)ccc1Cl
121 to 125 °C

Another compound to look at: Cc1cc(C)c2occ(-c3ccccc3)c2c1
131 to 132 °C

Another compound to look at: N#CCN1C(=O)N(c2ccc(C#N)c(C(F)(F)F)c2)C(=O)C1(CO)CO
157 to 158 °C

Another compound to look at: O=C(Cc1ccccc1[N+](=O)[O-])CN1C(=O)c2ccccc2C1=O
179 to 182 °C

Another compound to look at: COC(=O)c1ccc2cccc3c2c1-c1ccccc1-3
70 to 71 °C

Another compound to look at: O=C(O)CCC(=O)Nc1ccc(N2CCN(c3ccncc3)CC2)cc1
263 to 264 °C

Another compound to look at: NS(=O)(=O)c1cccc(-c2cccc(-c3nc(-c4ccc(C(F)(F)F)nc4)cc(C(F)(F)F)n3)c2)c1
211 °C

Another compound to look at: CC(=NOCC(=O)O)c1ccc(Cl)c(Cl)c1
128 to 129 °C

* * *

OUTCOME_MEASURE: melting point

Some compounds with recorded melting point:
CS(=O)(=O)c1ccccc1S(N)(=O)=O = 249 to 250 °C
CN(C(=O)c1cccc2ccccc12)[C@H](Cc1ccc(C(F)(F)F)cc1)[C@@H](O)c1ccc(F)cc1 (racemic) = 196 to 197 °C
O=c1oc(CO)nn1Cc1ccccc1 = 54 °C
CCC(Cc1ccc(C(=O)OC)cc1)NCC(O)c1ccc(O)c(CO)c1 (stereo not given) = 64 to 67 °C
O=S1CCOCC1c1ccc(Cl)c(Cl)c1 (stereo not given) = 100 to 103 °C
Cn1c(Cc2ccc(Cl)c(Oc3cc(C#N)cc(C#N)c3)c2F)nn(COC(=O)CCC(=O)O)c1=O = 142 to 143 °C
CCCCc1ccc(Cn2cc(C3c4ccccc4C=Cc4ccccc43)c(=S)[nH]c2=O)cc1C(=O)O = 230 °C
CC1(C)CC(=O)C1(Cl)CC(Cl)(Cl)Cl (stereo not given) = 75 to 76 °C

GET /values?readout=melting point&item= O=C1CC(Br)(CC(Br)(Br)Br)O1 (stereo not given)
71 to 73 °C

Another compound to look at: Cc1cccc(C)c1NC(=O)Nc1sc2cc3c(cc2c1-c1ccccc1Cl)CCC3
236 to 237 °C
